# TEST_PROTOCOL: Half life in Sprague-Dawley rat at 2 umol/kg, iv
# Format: ADME, organism-based
# MEASUREMENT_PARAMETERS: in vivo
ASSAY_ENDPOINT: half-life (h)

CHEMICAL_SMILES: NC(=O)c1cccc(O[C@@H]2C[C@H]3CC[C@@H](C2)N3CC2CCCCC2)c1
ASSAY_ENDPOINT: half-life
MEASURED: 1
--
CHEMICAL_SMILES: Cc1ccc(CN2[C@@H]3CC[C@H]2C[C@H](Oc2cccc(C(N)=O)c2)C3)s1
ASSAY_ENDPOINT: half-life
MEASURED: 1

* * *

Reported pIC50 is given for each of the following compounds.
# TARGET_SYSTEM: UniProtKB P35372
# Sequence (P35372 whole entry): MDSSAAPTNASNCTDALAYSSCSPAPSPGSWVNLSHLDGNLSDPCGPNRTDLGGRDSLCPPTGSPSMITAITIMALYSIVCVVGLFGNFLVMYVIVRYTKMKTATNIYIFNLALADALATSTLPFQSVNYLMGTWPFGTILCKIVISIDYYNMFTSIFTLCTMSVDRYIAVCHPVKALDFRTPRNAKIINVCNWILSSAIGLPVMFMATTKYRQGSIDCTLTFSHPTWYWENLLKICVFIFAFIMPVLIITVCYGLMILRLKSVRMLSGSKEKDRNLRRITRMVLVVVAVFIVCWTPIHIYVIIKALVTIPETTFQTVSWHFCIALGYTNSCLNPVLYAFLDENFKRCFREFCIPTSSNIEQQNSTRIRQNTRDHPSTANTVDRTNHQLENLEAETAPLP
# TEST_PROTOCOL: Antagonist activity at human mu opioid receptor assessed as inhibition of DAMGO-stimulated [35S]GTPgammaS binding
# Format: functional
pIC50: −log10 of the molar value.

CHEMICAL_SMILES: NC(=O)c1cccc(O[C@@H]2C[C@H]3CC[C@@H](C2)N3Cc2ccc3c(c2)OCO3)c1
pIC50: 6.51
//
CHEMICAL_SMILES: NC(=O)c1cccc(O[C@@H]2C[C@H]3CC[C@@H](C2)N3Cc2cccs2)c1
pIC50: 5.03
//
CHEMICAL_SMILES: C[C@H](c1ccnc(Cl)c1)N1[C@@H]2CC[C@H]1C[C@H](Oc1cccc(C(N)=O)c1)C2
pIC50: 4.64
//
CHEMICAL_SMILES: NC(=O)c1cccc(O[C@@H]2C[C@H]3CC[C@@H](C2)N3CCc2ccccc2)c1
pIC50: 6.37
//
CHEMICAL_SMILES: Cc1ccccc1CN1[C@@H]2CC[C@H]1C[C@H](Oc1cccc(C(N)=O)c1)C2
pIC50: 4.76

* * *

# TARGET_SYSTEM: Kappa-type opioid receptor (Homo sapiens, UniProt P41145)
# Sequence (P41145 whole entry): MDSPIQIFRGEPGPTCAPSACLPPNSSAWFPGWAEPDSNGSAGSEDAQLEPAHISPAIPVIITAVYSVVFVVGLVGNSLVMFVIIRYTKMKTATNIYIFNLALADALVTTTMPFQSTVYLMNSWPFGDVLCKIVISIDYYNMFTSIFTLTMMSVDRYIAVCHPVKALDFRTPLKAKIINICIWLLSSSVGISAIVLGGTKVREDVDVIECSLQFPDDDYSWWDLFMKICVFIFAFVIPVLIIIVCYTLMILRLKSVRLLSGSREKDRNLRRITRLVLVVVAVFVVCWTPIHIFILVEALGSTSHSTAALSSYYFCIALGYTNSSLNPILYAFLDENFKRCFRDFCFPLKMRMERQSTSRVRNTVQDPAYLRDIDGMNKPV
# TEST_PROTOCOL: Antagonist activity at human kappa opioid receptor assessed as inhibition of dynorphin A-induced [35S]GTPgammaS binding
# Format: functional
ASSAY_ENDPOINT: log10 of IC50 (log10 of the value in µM)

CHEMICAL_SMILES: C[C@@H](c1ccccc1)N1[C@@H]2CC[C@H]1C[C@H](Oc1cccc(C(N)=O)c1)C2
log10 of IC50: 1.31

CHEMICAL_SMILES: NC(=O)c1cccc(O[C@@H]2C[C@H]3CC[C@@H](C2)N3CC2CC2)c1
log10 of IC50: 0.83

CHEMICAL_SMILES: NC(=O)c1cccc(O[C@@H]2C[C@H]3CC[C@@H](C2)N3C2(c3ccccc3)CC2)c1
log10 of IC50: 1.38

CHEMICAL_SMILES: NC(=O)c1cccc(OC2CCN(CC3CC3)CC2)c1
log10 of IC50: 1.45

CHEMICAL_SMILES: NC(=O)c1cccc(O[C@@H]2C[C@H]3CC[C@@H](C2)N3Cc2cccnc2)c1
log10 of IC50: -0.37

* * *

The following compounds are listed with their measured IC50 values.
# TARGET_SYSTEM: Kappa-type opioid receptor (Homo sapiens)
# TEST_PROTOCOL: Antagonist activity at human kappa opioid receptor assessed as inhibition of dynorphin A-induced [35S]GTPgammaS binding
# Type: functional
ASSAY_ENDPOINT: IC50 (µM)

COMPOUND: NC(=O)c1cccc(O[C@@H]2C[C@H]3CC[C@@H](C2)N3CC(=O)N2CCCC2)c1
ASSAY_ENDPOINT: IC50
MEASURED: 3.41
--
COMPOUND: C[C@H](c1ccnc(Cl)c1)N1[C@@H]2CC[C@H]1C[C@H](Oc1cccc(C(N)=O)c1)C2
ASSAY_ENDPOINT: IC50
MEASURED: 0.307
--
COMPOUND: NC(=O)c1cccc(O[C@@H]2C[C@H]3CC[C@@H](C2)N3CC(=O)Nc2ccccc2)c1
ASSAY_ENDPOINT: IC50
MEASURED: 0.345
--
COMPOUND: CC(c1ccccc1)N1[C@@H]2CC[C@H]1C[C@H](Oc1cccc(C(N)=O)c1)C2 (some centres undefined)
ASSAY_ENDPOINT: IC50
MEASURED: 1
--
COMPOUND: NC(=O)c1cccc(O[C@@H]2C[C@H]3CC[C@@H](C2)N3C2CCCCC2)c1
ASSAY_ENDPOINT: IC50
MEASURED: 1.13
--
COMPOUND: NC(=O)c1cccc(O[C@@H]2C[C@H]3CC[C@@H](C2)N3CCCc2ccccc2)c1
ASSAY_ENDPOINT: IC50
MEASURED: 0.342
--
COMPOUND: NC(=O)c1cccc(O[C@@H]2C[C@H]3CC[C@@H](C2)N3C2CCCc3ccccc32)c1 (some centres undefined)
ASSAY_ENDPOINT: IC50
MEASURED: 2.19
--
COMPOUND: COc1cccc([C@@H](C)N2[C@@H]3CC[C@H]2C[C@H](Oc2cccc(C(N)=O)c2)C3)c1
ASSAY_ENDPOINT: IC50
MEASURED: 0.046
--
COMPOUND: Cc1ccc(CN2[C@@H]3CC[C@H]2C[C@H](Oc2cccc(C(N)=O)c2)C3)cc1
ASSAY_ENDPOINT: IC50
MEASURED: 0.049
